protocol_notes: in vitro
reported_conditions: SINV CC50
assay_readout: CC50 (µM)
Give the value, in units of µM, as a plain number.

[
  {
    "molecule": "CCOC(=O)c1cnc2c(OC)cccc2c1NCC(C)O (stereo not drawn) [Compound 69]",
    "CC50, µM": 34.6
  },
  {
    "molecule": "CCOc1ccc2nc(C)cc(Nc3ccc(OCc4ccccc4Cl)cc3)c2c1 [Compound 42]",
    "CC50, µM": 25.6
  },
  {
    "molecule": "COC(=O)c1ccc(Nc2cc(C)nc3c(C)cccc23)cc1 [Compound 61]",
    "CC50, µM": 45.9
  },
  {
    "molecule": "Cc1cc(Nc2ccc(C)c(Cl)c2)c2cccc(C)c2n1 [Compound 50]",
    "CC50, µM": 66.2
  },
  {
    "molecule": "CCOC(=O)c1ccc2ncc(C(=O)OCC)c(NCCCOC(=O)C(Cl)(Cl)Cl)c2c1 [Compound 64]",
    "CC50, µM": 60.5
  }
]

Looking up Cc1ccc2nc(C)cc(NCc3ccco3)c2c1 [Compound 23] , I see its CC50 listed as 57.9

Looking up CCc1ccccc1Nc1cc(C)nc2c(OC)cccc12 [Compound 24] , I see its CC50 listed as 57.9

Looking up Cc1ccc2nc3c(c(Nc4ccc(O)cc4)c2c1)CCC3 [Compound 16] , I see its CC50 listed as 34.1

Looking up CCCOC(=O)c1ccc(Nc2cc(C)nc3ccc(C(=O)OCC)cc23)cc1 [Compound 63] , I see its CC50 listed as 70.1
